System: MCF7 breast
Assay: NCI tumour cell line growth inhibition, 48 h
Listing of recorded GI50 by entry.

Sample records with GI50:
- compound: "COc1ccc(Cn2c(Br)c3c(c2-c2cc(OC)c(OC)c(OC)c2)CCc2sc(NC(C)=O)nc2-3)cc1"
  result: "3320 nM"
- compound: "Nc1c(C(=O)Nc2ccccc2)sc2nc3c(cc12)CCCC3"
  result: "355 nM"
- compound: "Nc1nc2c(c3cnccc13)C(c1cccc(Cl)c1)Cc1cnccc1-2 (centres undefined)"
  result: "292 nM"
- compound: "COc1cc(C2C(C#N)=C(N)Oc3cc(O)ccc32)cc(OC)c1OC (centres undefined)"
  result: "334 nM"
- compound: "CC([O-])C(=O)[O-].NCC1CCC1CN.[Pt+4] (centres undefined)"
  result: "6890 nM"
- compound: "Cc1ccc(S(=O)(=O)n2cc(-c3nnnn3-c3ccc(Cl)cc3)c(=O)c3ccccc32)cc1"
  result: "80600 nM"

Query: Which measured GI50 value corresponds to COc1cc(NC(N)=NCCC(C)(C)c2ccc(C(F)(F)F)cc2)ncc1C#N ?
Result: 1450 nM

Query: Please do the same for N=c1ccn2c(n1)O[C@@H]1[C@@H](O)[C@H](CO)O[C@@H]12 as well.
Result: 234 nM

Query: Please do the same for CC(=O)Nc1sc2c(c1-c1nc3ccccc3s1)CNC2 as well.
Result: 865 nM

###

Tested on: OVCAR-4 ovarian
Test: NCI tumour cell line growth inhibition, 48 h; in the data active = GI50 below about 0.43 µM; inactive = the rest
Your answer must be one of the following: active, inactive

Illustrative cases are given below, each with its answer.
- molecule: "CSc1nc2c(c(=O)[nH]1)C(c1ccc(Cl)cc1)C1=C(N2)/C(=C/c2ccc(Cl)cc2)CNC1 (centres undefined)"
  group: "inactive"
- molecule: "Nc1nc2c(c3cnccc13)C(c1cccc(Cl)c1)Cc1cnccc1-2 (centres undefined)"
  group: "inactive"
- molecule: "CC(C)Oc1ccc(C(=O)N[C@H](CNC(=O)CN(C)C)Cc2ccc(-c3cn4cccc([C@H](C)O)c4n3)cc2)cc1Cl"
  group: "active"

Proceed to the following item.
Query: Which outcome was entered for the molecule NC(N)=Nc1nc2ccccc2[nH]1 in this test?
Result: inactive

###

System: A549 NSCLC
Experiment: NCI tumour cell line growth inhibition, 48 h
*1 amine or outer side, *2 acyl side, *3 side chain or, on linkers, in order; H or OH if unused. Where a SMILES comes first, the peptide text is derived from it. Bridges are numbered along the chain shown (N, C = ends). [ ]: non-standard residue; d: D form. The star is where a group is joined. Phe(3-Me) = Cc1cccc(C[C@H](N)C(=O)O)c1; NH(4-Cl-2-F-phenyl) = Fc1cc(Cl)ccc1N*; Pro(4R-Me) = C[C@H]1CN[C@H](C(=O)O)C1; Propanoyl(3-NMe2) = CN(C)CCC(=O)*; Hyp = O=C(O)[C@@H]1C[C@@H](O)CN1; aThr = C[C@H](O)[C@H](N)C(=O)O; Pip = O=C(O)[C@@H]1CCCCN1; CO = O=C([*:1])[*:2]
Listing of recorded TGI by entry.
I only need the number, in µM, no unit after it.

- molecule: "Cc1ccccc1/C=C1\\CN(C(=O)OC(C)(C)C)C/C(=C\\c2ccccc2C)C1=O"
  TGI / µM: 9.17

Query: Which measured TGI value corresponds to Cc1cccc(C[C@H](NC(=O)Nc2ccc(Cl)cc2F)C(=O)N[C@@H]2C(=O)N3C[C@H](OC(=O)CCN(C)C)C[C@H]3C(=O)N3CCCC[C@H]3C(=O)N[C@@H](C)C(=O)N3C[C@H](C)C[C@H]3C(=O)O[C@H]2C)c1 ({NH(4-Cl-2-F-phenyl)-CO}-[Phe(3-Me)][aThr][Hyp](Propanoyl(3-NMe2))[Pip]A[Pro(4R-Me)]; ester 2-C) ?
Result: 11.2

###

Listing of recorded GI50 by entry.
Tested on: M14 melanoma
Experiment: NCI tumour cell line growth inhibition, 48 h
*1 amine or outer side, *2 acyl side, *3 side chain or, on linkers, in order; H or OH if unused. Where a SMILES comes first, the peptide text is derived from it. Bridges are numbered along the chain shown (N, C = ends). [ ]: non-standard residue; d: D form. The star is where a group is joined. Phe(3-Me) = Cc1cccc(C[C@H](N)C(=O)O)c1; NH(4-Cl-2-F-phenyl) = Fc1cc(Cl)ccc1N*; Pro(4R-Me) = C[C@H]1CN[C@H](C(=O)O)C1; Propanoyl(3-NMe2) = CN(C)CCC(=O)*; Hyp = O=C(O)[C@@H]1C[C@@H](O)CN1; aThr = C[C@H](O)[C@H](N)C(=O)O; Pip = O=C(O)[C@@H]1CCCCN1; CO = O=C([*:1])[*:2]

Sample records with GI50:
- compound: "Nc1c(C(=O)Nc2ccccc2)sc2nc3c(cc12)CCCC3"
  result: "0.487 µM"
- compound: "CCN1CCN(C(=O)[C@]23CCC(C)(C)C[C@@H]2C2=CC[C@@H]4[C@@]5(C)C/C(=C/c6cccnc6)C(=O)C(C)(C)[C@@H]5CC[C@@]4(C)[C@]2(C)CC3)CC1"
  result: "1.6 µM"
- compound: "O=C(CN1CCN(c2ccc(Cl)cc2)CC1)N1CCN(c2nnc(-c3ccccc3)c(-c3ccccc3)n2)CC1"
  result: "> 100 µM"
- compound: "O=C1C(Cl)=C(Nc2cccc(O)c2)C(=O)N1c1cccc(Cl)c1Cl"
  result: "14.8 µM"
- compound: "Cc1nn(-c2ccc(Br)cc2)c(C)c1CC(=O)c1cc(O)ccc1O"
  result: "29.6 µM"

Query: Which measured GI50 value corresponds to CC(=O)Nc1sc2c(c1-c1nc3ccccc3s1)CNC2 ?
Result: 2.47 µM

Query: Please do the same for CC[C@]12CCCN3CC[C@]4(C(=C(C(=O)OC)C1)Nc1ccccc14)[C@@H]32 as well.
Result: 20.5 µM

Query: Please do the same for COc1cc2c3c(n(CCCCl)c(=O)c2cc1OC)-c1ccc(C#N)cc1C3=O as well.
Result: 9.24 µM

Query: Please do the same for CC(C)[C@@H]1CC[C@@H]2[C@@H]1[C@H](OC(=O)/C=C/c1ccccc1)[C@]1(C(C)C)C[C@@H](OC(=O)CO)[C@@]2(C)O1 as well.
Result: 5.83 µM

Query: Please do the same for C=C1N(C)c2ccc(Cl)cc2C1(C)C as well.
Result: 5.73 µM

Query: Please do the same for CC[C@@]1(O)C(=O)OCc2c1cc1n(c2=O)Cc2c-1nc1ccccc1c2/C=N/OC(C)(C)C as well.
Result: < 0.01 µM

Query: Please do the same for Cc1cccc(C[C@H](NC(=O)Nc2ccc(Cl)cc2F)C(=O)N[C@@H]2C(=O)N3C[C@H](OC(=O)CCN(C)C)C[C@H]3C(=O)N3CCCC[C@H]3C(=O)N[C@@H](C)C(=O)N3C[C@H](C)C[C@H]3C(=O)O[C@H]2C)c1 ({NH(4-Cl-2-F-phenyl)-CO}-[Phe(3-Me)][aThr][Hyp](Propanoyl(3-NMe2))[Pip]A[Pro(4R-Me)]; ester 2-C) as well.
Result: 0.474 µM

Query: Please do the same for NC[C@@](O)(c1ccc(Cl)cc1)c1ccc(-c2cn[nH]c2)cc1 as well.
Result: 2.34 µM

###

Tested on: OVCAR-5 ovarian
Test: NCI tumour cell line growth inhibition, 48 h
Listing of recorded TGI by entry.

Query: Which measured TGI value corresponds to Cn1c(=S)sc2nc3ccccc3n2c1=S ?
Result: 29.1 µM

Query: Please do the same for c1ccc(C2N3CCCCC3[C@@H]3c4[nH]c5ccccc5c4CCN23)cc1 (some centres undefined) as well.
Result: > 100 µM

Query: Please do the same for O=C1O[C@H]2[C@@H]3OC(=O)c4cc(O)c(O)c(O)c4-c4c(cc(O)c(O)c4O)C(=O)OC[C@H]2O[C@@H](OC(=O)c2cc(O)c(O)c(O)c2)[C@@H]3OC(=O)c2cc(O)c(O)c3c2[C@@H]2C1=CC(=O)C(O)(O)C2(O)O3 (some centres undefined) as well.
Result: 67.1 µM

Query: Please do the same for Cc1cc2[nH]c3c(C#N)c(-c4ccccc4)c(CN4CCOCC4)c(=O)n3c2cc1C as well.
Result: > 100 µM

Query: Please do the same for CN1CCCCC1CCN1c2ccccc2Sc2ccc(S(C)=O)cc21 (centres undefined) as well.
Result: > 100 µM

###

Tested on: HCT-116 colon
Assay: NCI tumour cell line growth inhibition, 48 h
observable: TGI (µM)
I only need the number, in µM, no unit after it.

Sample records with TGI:
- compound: "CCSc1nc2n(c(=S)n1)CCN2C"
  TGI [µM]: 33.7
- compound: "Cc1cc(NCCCCCCNc2cc(C)nc3ccc(Cl)cc23)c2cc(Cl)ccc2n1"
  TGI [µM]: 30.8
- compound: "CCCN1CCN(c2ccc3nc(-c4ccc5nc(-c6ccc(OCC)c(OCC)c6)[nH]c5c4)[nH]c3c2)CC1"
  TGI [µM]: 1.19
- compound: "Cc1ccccc1/C=C1\\CN(C(=O)OC(C)(C)C)C/C(=C\\c2ccccc2C)C1=O"
  TGI [µM]: 4.57
- compound: "OCSc1nn(CO)c(=S)s1"
  TGI [µM]: 55.4

Query: Which measured TGI value corresponds to C[C@]12CCC(=O)C=C1CC[C@@H]1C2CC[C@]2(C)Nc3c(ncn3-c3ccc(F)cc3)CC12 (stereo not given in full) ?
Result: 32.8

Query: Please do the same for N#CC(c1cc(Cl)ncn1)c1nc2ccccc2s1 (stereo not given) as well.
Result: 22.7

Query: Please do the same for O=C1C(Cl)=C(Nc2cccc(O)c2)C(=O)N1c1cccc(Cl)c1Cl as well.
Result: 23.2
